Quick reference: protein stability index of the listed items.
B1: FAM189A2 (parent)
chain: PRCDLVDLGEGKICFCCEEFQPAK

- Variants of: B1
- protocol: protein stability index of a GFP-peptide fusion (GPS, HEK-293T) (PSI 1-6); higher = more stable;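 note: lentivirally expressed fusions sorted by FACS into six bins by GFP to DsRed ratio, PSI derived from sequencing read proportions per bin multiplied by bin number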
- measurement-setup: c terminus: a fixed tail appended
Give the figure only, with no unit attached.

Look over these answered cases.
seq	protein stability index
PRCDLVDLGEGKICFCCEWFQPAK [E19W]	2.25
ARCDLVDLGEGKICFCCEEFQPAK [P1A]	2.24
PRCDLVDLGEGKICFLCEEFQPAK [C16L]	2.71
PRCDLVDLGEGKICFCCEEFQPVK [A23V]	3.29
PRCDLVDLGEGKICFDCEEFQPAK [C16D]	3.88
PRCWLVDLGEGKICFCCEEFQPAK [D4W]	1.16
PRCDLVDLGEGKICFCCEEFQVAK [P22V]	2.69
PRCDLVDAGEGKICFCCEEFQPAK [L8A]	3.54
PRCDLVDLGEGKICFCCEEFQPEK [A23E]	4.35
PRCDNVDLGEGKICFCCEEFQPAK [L5N]	3.52

## Task Which protein stability index value is on record for PRCDLVDLGEGKICFCCEEFQPAQ [K24Q] ?
## Result 2.25

## Task Which protein stability index value is on record for PRCDLVDLKEGKICFCCEEFQPAK [G9K] ?
## Result 2.96

## Task Which protein stability index value is on record for PRCDLVLLGEGKICFCCEEFQPAK [D7L] ?
## Result 2.3

src = the supplement of paper PMC10567573
